Here the recorded EC50 is given for each entry.
Biological target: RNA-binding protein pos-1 (Caenorhabditis elegans, UniProt G5EF15)
Sequence (G5EF15 whole entry): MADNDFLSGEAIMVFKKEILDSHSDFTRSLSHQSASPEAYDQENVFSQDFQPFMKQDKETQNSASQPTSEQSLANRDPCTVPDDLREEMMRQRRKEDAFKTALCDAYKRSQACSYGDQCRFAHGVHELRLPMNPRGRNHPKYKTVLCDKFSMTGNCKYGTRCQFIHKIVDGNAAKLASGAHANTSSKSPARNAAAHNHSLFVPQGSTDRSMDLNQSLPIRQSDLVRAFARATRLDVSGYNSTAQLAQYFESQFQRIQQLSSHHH
Test: inhibitors of POS-1/mex-3 RNA binding, dose response, biochemical, fluorescence polarization (AID 1964);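 further: purified POS-1 fused to maltose binding protein made in E. coli; potency of compounds blocking POS-1 binding to fluorescent RNA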
Active and inactive are the calls of the source. No stated cut-off is given here; in the data, actives have a measured EC50 and inactives only a lower limit.
measurement label: EC50

INSERT INTO measurements (molecule, result_value) VALUES
  ('COc1cccc(OCCCn2cc(/C=C3/C(=N)N4C=C(C)SC4=NC3=O)c3ccccc32)c1', '108 µM (active)'),
  ('O=[N+]([O-])c1cccc(/C=C/c2nc(/C=N/c3ccccc3)c(O)o2)c1', '> 300 µM (not active)'),
  ('Cc1cc2nc3ccc(N(C)C)cc3[s+]c2cc1N [TOLONIUM CHLORIDE]', '> 300 µM (not active)'),
  ('C/C(=N\NC(=O)c1nnn(-c2nonc2N)c1-c1cccs1)c1cccc(O)c1', '> 300 µM (not active)'),
  ('COC(=O)c1cccc(-n2c(CCC(=O)O)ccc2-c2cccs2)c1', '> 300 µM (not active)'),
  ('Cc1cccn2c(=O)c3cc(C#N)/c(=N\C(=O)c4cccs4)n(CCCOC(C)C)c3nc12', '141 µM (inconclusive)'),
  ('N#CC1=C(N)OC2=C(C(=O)CCC2)C1c1ccc(OC(=O)N2CCOCC2)cc1 (stereo unspecified)', '> 300 µM (not active)'),
  ('FC(F)(F)c1ccc2c(c1)C1C=CCC1C(c1ccncc1)N2 (stereo unspecified)', '> 300 µM (not active)'),
  ('O=C1NC(=O)N(CCc2ccc(F)cc2)C(=O)/C1=C/NCCCn1ccnc1', '> 300 µM (not active)'),
  ('CC(C)(C)c1ccc(/C=C2\Oc3cc(O)ccc3C2=O)cc1', '31.4 µM (active)'),
  ('S=c1[nH]c2ccccc2n2c(=S)[nH]nc12', '10.3 µM (inconclusive)');
